Target: Erh1 (Erh1wt) (Schizosaccharomyces pombe)
Construct: A region of Erh1 (residues 1–104) was amplified by PCR; made in house; host or cells: Escherichia coli BL21 (Gold)
Sequence (G2TRN4 1-104): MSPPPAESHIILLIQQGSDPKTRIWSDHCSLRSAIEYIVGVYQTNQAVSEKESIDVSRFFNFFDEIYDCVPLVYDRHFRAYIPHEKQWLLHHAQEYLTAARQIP
Assay: Isothermal titration calorimetry (ITC), SUMO-tagged Mmi1 peptides titrated into wild-type Erh1
Type: binding, S. pombe
Conditions: Erh1wt; ITC, 293 K, 20 mM Tris-HCl pH 7.5, 150 mM NaCl; SUMO-tagged Mmi1 peptide
Where no end group is shown, it is not given here. SUMO = SUMO tag, N-terminal
testReadout: -TΔS (kJ per mol)
Write the value in kJ per mol as a bare number.

Some substances with known -TΔS results, for comparison:
-TΔS for Mmi1T104A: Mmi1 peptide mutant T104A ({SUMO}-GKYDFSRHCADYGHSYEWPYFRSLRRES; not fully specified) is 22.8

Record Mmi1Y97A: Mmi1 peptide mutant Y97A ({SUMO}-GKADFSRHCTDYGHSYEWPYFRSLRRES; not fully specified) . Reported -TΔS: 13.8

Turning now to a further record.
Noted for Mmi1S100A: Mmi1 peptide mutant S100A ({SUMO}-GKYDFARHCTDYGHSYEWPYFRSLRRES; not fully specified) : its -TΔS reads 6.04
